target: ZFP SBS#532 (synthetic, UniProt P08047); test: EMSA; details: tags: MBP fusion
Sequence (P08047 other isoform, or with tags, fused parts or gaps): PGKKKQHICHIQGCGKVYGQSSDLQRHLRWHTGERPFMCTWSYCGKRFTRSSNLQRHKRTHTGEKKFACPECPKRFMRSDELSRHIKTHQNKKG
assay_endpoint: Kd (nM)
Write the answer as a number in nM, unit excluded.

Input line: So what's the measured Kd for this one? GCGGAGGCTT (dsDNA) DNA 1: GCGGAGGCTT DNA 2: AAGCCTCCGC
Output line: 100
